- test_summary: Pharmacokinetic study, plasma concentration after i.p. injection
- Format: in vivo
- settings: Albino Swiss, ip, mouse, 10 mg/kg i.p.
measured_property: AUC (µM·h)

{"columns": ["compound", "measurement_unit", "meas_value"],
 "data": [
  ["COc1ccc(-c2cc3onc(-c4ccncc4)c3c(=O)n2C)cc1", "µM·h", 13.5],
  ["CCc1nc2c(o1)CC(c1ccc(C)cc1C)CC2=O (centres unmarked)", "µM·h", 1.9]
]}

###

- test_summary: Pharmacokinetic study, plasma concentration after i.p. injection
- Type: in vivo
- settings: Albino Swiss, ip, mouse, 10 mg/kg i.p.
- Method: The mice were then perfused with 0.1M PBS to remove remaining blood from the body, and the brains were taken out for the analysis. Blood was centrifuged at 2000 rpm for 10 min at 4°C, and the plasma was collected and frozen at -80°C for further analysis. […] Plasma and tissue samples from all drug-treated animals at selected time points are analyzed using previously developed a non-validated liquid chromatography-tandem mass spectrometry (LC-MS)/MS method. […]

{"columns": ["compound", "Cmax / µM"],
 "data": [
  ["COc1ccc(-c2cc3onc(-c4ccncc4)c3c(=O)n2C)cc1 [MMPIP]", 9.85],
  ["CCc1nc2c(o1)CC(c1ccc(C)cc1C)CC2=O (centres unmarked) [ADX71743]", 3.73]
]}

###

- test_target: Cytochrome P450 2C19 (Homo sapiens)
- Sequence (P33261 whole entry): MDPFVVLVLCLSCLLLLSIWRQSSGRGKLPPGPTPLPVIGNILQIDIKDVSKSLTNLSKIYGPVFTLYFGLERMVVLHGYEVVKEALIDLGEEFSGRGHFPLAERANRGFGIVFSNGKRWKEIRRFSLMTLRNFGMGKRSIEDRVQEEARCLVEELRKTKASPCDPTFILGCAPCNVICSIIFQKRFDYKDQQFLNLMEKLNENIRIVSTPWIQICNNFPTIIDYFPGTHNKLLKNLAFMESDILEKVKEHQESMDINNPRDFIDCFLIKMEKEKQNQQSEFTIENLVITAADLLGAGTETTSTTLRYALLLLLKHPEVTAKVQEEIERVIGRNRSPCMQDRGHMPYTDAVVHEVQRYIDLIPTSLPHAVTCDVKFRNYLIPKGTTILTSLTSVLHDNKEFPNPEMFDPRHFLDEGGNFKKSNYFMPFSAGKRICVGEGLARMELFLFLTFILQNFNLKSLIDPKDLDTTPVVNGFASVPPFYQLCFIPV

{"columns": ["compound", "IC50"],
 "data": [
  ["CCc1nc2c(o1)CC(c1ccc(C)cc1C)CC2=O (centres unmarked)", "3.3 to 10 µM"],
  ["COc1ccc(-c2cc3onc(-c4ccncc4)c3c(=O)n2C)cc1", "< 1.1 µM"]
]}

###

The reader will find reported Cmax values listed item by item below.
- test_summary: Pharmacokinetic study, brain concentration after i.p. injection
- Assay type: in vivo, mouse (Albino Swiss)
- settings: Albino Swiss, ip; brain, mouse, 10 mg/kg i.p.
- Protocol: The mice were then perfused with 0.1M PBS to remove remaining blood from the body, and the brains were taken out for the analysis. Blood was centrifuged at 2000 rpm for 10 min at 4°C, and the plasma was collected and frozen at -80°C for further analysis. […] Plasma and tissue samples from all drug-treated animals at selected time points are analyzed using previously developed a non-validated liquid chromatography-tandem mass spectrometry (LC-MS)/MS method. […]
measured_property: Cmax (µM)

{"columns": ["compound", "measurement_unit", "meas_value"],
 "data": [
  ["COc1ccc(-c2cc3onc(-c4ccncc4)c3c(=O)n2C)cc1", "µM", 5.42],
  ["CCc1nc2c(o1)CC(c1ccc(C)cc1C)CC2=O (centres unmarked)", "µM", 3.38]
]}

###

- test_summary: Pharmacokinetic study, brain concentration after i.p. injection
- Format: in vivo, mouse (Albino Swiss)
- settings: Albino Swiss, ip; brain, mouse, 10 mg/kg i.p.

{"columns": ["compound", "half-life (h)"],
 "data": [
  ["CCc1nc2c(o1)CC(c1ccc(C)cc1C)CC2=O (centres unmarked) [ADX71743]", 0.34],
  ["COc1ccc(-c2cc3onc(-c4ccncc4)c3c(=O)n2C)cc1 [MMPIP]", 1.75]
]}

###

The reader will find reported microsomal CLint values listed item by item below.
- test_summary: Metabolic stability (microsomes, mice)
- Assay type: in vitro ADME
- settings: mouse, liver microsomes
measured_property: microsomal CLint (µL/min/mg)

{"columns": ["compound", "measurement_unit", "meas_value"],
 "data": [
  ["COc1ccc(-c2cc3onc(-c4ccncc4)c3c(=O)n2C)cc1", "µL/min/mg", 38.7],
  ["CCc1nc2c(o1)CC(c1ccc(C)cc1C)CC2=O (centres unmarked)", "µL/min/mg", 500]
]}

###

- test_summary: Pharmacokinetic study, brain concentration after i.p. injection
- Assay type: in vivo, mouse (Albino Swiss)
- settings: Albino Swiss, ip; brain, mouse, 10 mg/kg i.p.

{"columns": ["molecule", "AUC"],
 "data": [
  ["COc1ccc(-c2cc3onc(-c4ccncc4)c3c(=O)n2C)cc1", "8.98 µM·h"],
  ["CCc1nc2c(o1)CC(c1ccc(C)cc1C)CC2=O (centres unmarked)", "2.27 µM·h"]
]}

###

- test_target: Cytochrome P450 3A4 (Homo sapiens)
- Sequence (P08684 whole entry): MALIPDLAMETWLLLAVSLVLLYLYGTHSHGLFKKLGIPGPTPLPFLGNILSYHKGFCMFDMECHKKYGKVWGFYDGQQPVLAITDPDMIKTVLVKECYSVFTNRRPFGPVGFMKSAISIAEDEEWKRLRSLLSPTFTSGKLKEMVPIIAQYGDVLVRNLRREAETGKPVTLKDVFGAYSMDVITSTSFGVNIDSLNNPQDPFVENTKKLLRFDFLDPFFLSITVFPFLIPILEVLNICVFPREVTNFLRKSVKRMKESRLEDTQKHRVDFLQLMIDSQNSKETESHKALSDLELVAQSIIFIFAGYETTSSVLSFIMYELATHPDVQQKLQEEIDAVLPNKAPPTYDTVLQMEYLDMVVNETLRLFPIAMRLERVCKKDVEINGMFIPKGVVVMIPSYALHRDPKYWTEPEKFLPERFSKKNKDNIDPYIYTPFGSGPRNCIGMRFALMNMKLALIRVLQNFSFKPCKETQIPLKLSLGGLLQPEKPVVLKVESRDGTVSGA

{"columns": ["molecule", "IC50"],
 "data": [
  ["CCc1nc2c(o1)CC(c1ccc(C)cc1C)CC2=O (stereo not shown) [ADX71743]", "> 10 µM"]
]}

###

// values below are IC50; system is Cytochrome P450 2D6 (Homo sapiens, UniProt P10635)
Sequence (P10635 whole entry): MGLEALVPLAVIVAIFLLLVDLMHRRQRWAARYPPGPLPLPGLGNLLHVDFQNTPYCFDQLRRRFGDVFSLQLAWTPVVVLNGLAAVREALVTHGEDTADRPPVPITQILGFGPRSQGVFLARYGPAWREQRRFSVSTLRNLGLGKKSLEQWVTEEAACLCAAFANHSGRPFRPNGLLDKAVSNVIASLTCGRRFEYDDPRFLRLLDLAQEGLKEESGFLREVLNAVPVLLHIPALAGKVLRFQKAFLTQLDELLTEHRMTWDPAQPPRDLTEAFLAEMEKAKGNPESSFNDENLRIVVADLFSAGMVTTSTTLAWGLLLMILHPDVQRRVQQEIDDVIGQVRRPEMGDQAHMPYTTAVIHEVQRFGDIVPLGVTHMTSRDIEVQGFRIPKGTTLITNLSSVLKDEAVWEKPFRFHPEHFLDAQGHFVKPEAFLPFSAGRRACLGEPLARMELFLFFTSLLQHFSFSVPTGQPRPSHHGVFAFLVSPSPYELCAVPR

{"columns": ["compound", "IC50"],
 "data": [
  ["CCc1nc2c(o1)CC(c1ccc(C)cc1C)CC2=O (centres unmarked) [ADX71743]", "> 10 µM"],
  ["COc1ccc(-c2cc3onc(-c4ccncc4)c3c(=O)n2C)cc1 [MMPIP]", "> 10 µM"]
]}
